Assay: gradient 5% acetonitrile 3 min, to 50% in 2 min, to 85% in 15 min, held 3 min, 100 µL/min
Conditions: column: Zorbax Extend-C18 2.1 x 50 mm; eluents: water / acetonitrile, 0.1% formic acid
PROPERTY_LABEL: RP-LC retention time (s)

Recorded RP-LC retention time, per entry:
Cc1nc(-c2noc(-c3ccc(F)cc3)n2)cn1CC(=O)NCc1ccccc1F	824
CC(C)CC(=O)Nc1ccc2nc(N3CCN(Cc4ccccc4F)CC3)cc(C(=O)O)c2c1	603
Cc1cc(C2CCCN2C(=O)Nc2ccccc2C(F)(F)F)on1 (stereo not given)	812
CCOCCCNC(=O)C1=NN(c2ccc(F)cc2)c2ccc(F)cc2S1(=O)=O	885
CCn1nccc1C(=O)NC1CCN(C2=NS(=O)(=O)C(c3ccccc3)=C2C)CC1	764

P = Cc1ccc(CN2CCC(CNC(=O)c3cc(=O)n(C)c4c3c(=O)n(C)c(=O)n4C)CC2)cc1
Q = O=C(c1ccc(Br)cc1)N1CCc2nc(-c3ccccc3)ncc2C1
Query: Lower RP-LC retention time: P or Q ? // return label of chosen record
Result: P
(P: 625 s, Q: 1000 s)

a = CC1(C)CC(=O)C(CC(=O)c2ccccc2)=C(NN=C(N)N)C1
b = Cc1cc(S(=O)(=O)[C@H]2CS(=O)(=O)C[C@@H]2N2CCN(c3cccc(Cl)c3)CC2)ccc1F
Query: Which entry has a larger number for RP-LC retention time, a or b ? // return label of chosen record
Result: b

1 = Cc1onc(-c2ccccc2Cl)c1C(=O)NC1CC(=O)N(C2CC2)C1 (stereo not given)
2 = COc1ccc(-c2noc(C3CC(=O)N(c4cccc(Cl)c4)C3)n2)cc1OC (stereo not given)
Query: Which entry has a larger number for RP-LC retention time, 1 or 2 ? // return label of chosen record
Result: 2
(2: 934 s, 1: 636 s)

A = Cc1cc(C)c2c(N3CCOCC3)nc(C(=O)NCC3CCCCC3)nc2n1
B = Cc1sc2ncnc(N3CCCC(C)C3)c2c1C(=O)Nc1ccc(Br)cc1 (stereo not given)
Query: Which entry has a larger number for RP-LC retention time, A or B ? // return label of chosen record
Result: B

A = CC(=O)N1CCc2c(c(CNC(=O)c3cncn3C)nn2C)C1
B = CC(C)CCNC(=O)c1nc(Nc2ccc(F)cc2)c2ccccc2n1
Query: Which entry has a larger number for RP-LC retention time, A or B ? // return label of chosen record
Result: B
(B: 851 s, A: 558 s)

a = CC(C)(C)c1ccc(OCC(O)CN)cc1 (stereo not given)
b = Cc1ccc(-c2ccc(N3CCCC(C(=O)NCc4ccc(C(C)C)cc4)C3)nn2)cc1 (stereo not given)
Query: Which entry has a larger number for RP-LC retention time, a or b ? // return label of chosen record
Result: b
